Target: Prostaglandin G/H synthase 1 (Ovis aries)
Sequence (P05979 whole entry): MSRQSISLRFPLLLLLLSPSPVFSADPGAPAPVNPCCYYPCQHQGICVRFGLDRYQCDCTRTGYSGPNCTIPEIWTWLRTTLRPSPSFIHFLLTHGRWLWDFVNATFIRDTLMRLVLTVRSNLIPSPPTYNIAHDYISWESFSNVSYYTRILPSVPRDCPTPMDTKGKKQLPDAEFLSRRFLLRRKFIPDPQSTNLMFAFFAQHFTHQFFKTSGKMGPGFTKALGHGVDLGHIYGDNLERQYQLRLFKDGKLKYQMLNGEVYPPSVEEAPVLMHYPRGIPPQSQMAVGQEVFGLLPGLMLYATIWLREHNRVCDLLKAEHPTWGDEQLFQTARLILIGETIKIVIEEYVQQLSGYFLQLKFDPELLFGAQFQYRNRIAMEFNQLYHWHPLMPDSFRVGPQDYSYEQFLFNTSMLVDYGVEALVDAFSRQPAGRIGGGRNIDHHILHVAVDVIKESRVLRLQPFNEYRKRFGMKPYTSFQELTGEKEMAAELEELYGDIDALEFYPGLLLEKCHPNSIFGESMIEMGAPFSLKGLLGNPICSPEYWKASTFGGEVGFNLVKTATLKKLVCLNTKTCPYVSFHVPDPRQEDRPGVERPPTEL
MEASURED_PROPERTY: IC50 (µM)
Give just the number in µM; leave the unit off.

Reported Prostaglandin G/H synthase 1 (Ovis aries) IC50 for item O=C(c1ccccc1)c1ccc(O)c(C(=O)c2ccccc2)c1O was 6

---

Recorded measurements of inhibition, one per entry
Biological target: Prostaglandin G/H synthase 1 (Ovis aries) (UniProt P05979)
Assay: In vitro inhibitory activity against ovine cyclooxygenase-1 (COX-1) at 200 uM; Inactive

Before answering, review these 4 worked examples.
compound=CCCCC1C(=O)N(c2ccccc2)N(c2ccccc2)C1=O recorded_measurement="< 50%"
compound="CCc1cccc2c3c([nH]c12)C(CC)(CC(=O)O)OCC3 (configuration not stated)" recorded_measurement="< 50%"
compound="CC(C(=O)O)c1cccc(C(=O)c2ccccc2)c1 (configuration not stated)" recorded_measurement="< 50%"
compound="CC(C(=O)O)c1ccc(N2CC=CC2)c(Cl)c1 (configuration not stated)" recorded_measurement="< 50%"

Notebook: CC(C(=O)O)c1ccc(N2Cc3ccccc3C2=O)cc1 (configuration not stated) , inhibition read as < 50%

Notebook: CC(C)Cc1ccc(C(C)C(=O)O)cc1 (configuration not stated) , inhibition read as < 50%

Notebook: COc1ccc2cc([C@H](C)C(=O)O)ccc2c1 , inhibition read as < 50%
